system: serum IgM (rheumatoid factors); experiment: Peptide ELISA: serum IgM binding to biotinylated IgG1-derived peptides; set-up: species or system human; conditions: Sjogren's disease subjects previously RF positive versus matched controls; FIG. 9B
Endpoint: IgM binding to the peptide

- LTVDKSRWQQGNVFSC (IgG epitope) [Peptide P01857-293, native IgG1 peptide, position 293]: not bound
- KDTLMISRTPEVTCVV (IgG epitope) [Peptide P01857-131, native IgG1 peptide, position 131]: not bound
- DKTHTCPPCPAPELLG (IgG epitope) [Peptide P01857-104, native IgG1 hinge peptide, position 104]: bound
- RDELTKNQVSLTCLVK (IgG epitope) [Peptide P01857-238, native IgG1 peptide, position 238]: not bound

---

test system: serum IgG (rheumatoid factors); assay: Peptide ELISA: serum IgG binding to biotinylated IgG1-derived peptides; parameters: species or system human; details: Sjogren's disease subjects previously RF positive versus matched controls; FIG. 9B
Endpoint: IgG binding to the peptide

• LTVDKSRWQQGNVFSC (IgG epitope) [Peptide P01857-293, native IgG1 peptide, position 293] = not bound
• KDTLMISRTPEVTCVV (IgG epitope) [Peptide P01857-131, native IgG1 peptide, position 131] = not bound
• DKTHTCPPCPAPELLG (IgG epitope) [Peptide P01857-104, native IgG1 hinge peptide, position 104] = bound
• RDELTKNQVSLTCLVK (IgG epitope) [Peptide P01857-238, native IgG1 peptide, position 238] = not bound

FYI, the data here is from patent US20230212316A1.
